# test-target: Monoamine transporters; serotonin & dopamine (Rattus norvegicus) (UniProt P31652+P23977)
# Sequence (P23977 whole entry, looked up): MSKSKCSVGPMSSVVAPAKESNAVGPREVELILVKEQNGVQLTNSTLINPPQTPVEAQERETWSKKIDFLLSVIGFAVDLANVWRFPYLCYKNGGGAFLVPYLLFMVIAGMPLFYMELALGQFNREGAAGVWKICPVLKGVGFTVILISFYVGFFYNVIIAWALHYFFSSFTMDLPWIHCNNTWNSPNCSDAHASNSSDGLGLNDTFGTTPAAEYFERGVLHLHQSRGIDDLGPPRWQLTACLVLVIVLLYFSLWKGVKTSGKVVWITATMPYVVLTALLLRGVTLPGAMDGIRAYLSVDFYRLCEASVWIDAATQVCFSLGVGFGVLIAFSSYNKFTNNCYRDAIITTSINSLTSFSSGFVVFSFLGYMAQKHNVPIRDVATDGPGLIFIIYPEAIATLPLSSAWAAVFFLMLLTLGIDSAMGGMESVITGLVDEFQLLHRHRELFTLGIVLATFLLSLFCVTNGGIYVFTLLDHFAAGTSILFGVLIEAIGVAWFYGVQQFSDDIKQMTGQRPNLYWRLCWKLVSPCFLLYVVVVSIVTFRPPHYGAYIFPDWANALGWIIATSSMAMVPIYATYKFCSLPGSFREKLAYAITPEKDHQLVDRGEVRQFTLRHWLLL
# Sequence (P31652 whole entry, looked up): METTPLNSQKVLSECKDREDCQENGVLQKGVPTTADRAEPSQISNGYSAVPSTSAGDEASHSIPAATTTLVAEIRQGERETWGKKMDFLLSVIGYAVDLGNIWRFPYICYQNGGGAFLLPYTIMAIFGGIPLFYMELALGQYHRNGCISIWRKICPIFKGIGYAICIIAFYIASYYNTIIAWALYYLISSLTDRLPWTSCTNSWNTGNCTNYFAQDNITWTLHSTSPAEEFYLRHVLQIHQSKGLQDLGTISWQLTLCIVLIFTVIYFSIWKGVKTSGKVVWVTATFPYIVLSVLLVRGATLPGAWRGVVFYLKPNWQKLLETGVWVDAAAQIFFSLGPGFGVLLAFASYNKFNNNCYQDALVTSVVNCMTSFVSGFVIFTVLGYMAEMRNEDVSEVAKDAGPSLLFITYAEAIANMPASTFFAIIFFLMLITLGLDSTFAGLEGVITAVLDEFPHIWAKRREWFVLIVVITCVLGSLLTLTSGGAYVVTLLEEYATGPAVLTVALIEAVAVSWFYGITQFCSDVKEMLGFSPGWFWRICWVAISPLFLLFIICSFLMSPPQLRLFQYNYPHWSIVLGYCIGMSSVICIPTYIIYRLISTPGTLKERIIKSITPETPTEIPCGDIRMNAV
# experimental-protocol: Ratio of reuptake of 5-HT to that of DA
# Format: functional
As shown below, each of these compounds has a reported Ratio value.
outcome-measure: Ratio

compound | test-target | value
CN1CC2CC1CN2CCOC(c1ccc(F)cc1)c1ccc(F)cc1 (stereo not given) | Monoamine transporters; serotonin & dopamine (Rattus norvegicus) (UniProt P31652+P23977) | 17
Fc1ccc(C(OCCN2CC3CC2CN3CCCc2ccccc2)c2ccc(F)cc2)cc1 (stereo not given) | Monoamine transporters; serotonin & dopamine (Rattus norvegicus) (UniProt P31652+P23977) | 1.5
c1ccc(CCCN2C3CCC2CN(CCOC(c2ccccc2)c2ccccc2)CC3)cc1 (stereo not given) | Monoamine transporters; serotonin & dopamine (Rattus norvegicus) (UniProt P31652+P23977) | 26
Fc1ccc(C(OCCN2CC3CCC(C2)N3C/C=C/c2cccs2)c2ccc(F)cc2)cc1 | Monoamine transporters; serotonin & dopamine (Rattus norvegicus) (UniProt P31652+P23977) | 10
Fc1ccc(C(OCCN2CC3CCC(C2)N3C/C=C/c2ccco2)c2ccc(F)cc2)cc1 | Monoamine transporters; serotonin & dopamine (Rattus norvegicus) (UniProt P31652+P23977) | 13
